Data credit: patent US12371428B2

Would you kindly list IC50 for each of these molecules?
- assay-system: KDR (phospho-KDR, VEGF165-stimulated HUVEC cells) (Homo sapiens (Human), UniProt P35968)
- Sequence (P35968 20-1356): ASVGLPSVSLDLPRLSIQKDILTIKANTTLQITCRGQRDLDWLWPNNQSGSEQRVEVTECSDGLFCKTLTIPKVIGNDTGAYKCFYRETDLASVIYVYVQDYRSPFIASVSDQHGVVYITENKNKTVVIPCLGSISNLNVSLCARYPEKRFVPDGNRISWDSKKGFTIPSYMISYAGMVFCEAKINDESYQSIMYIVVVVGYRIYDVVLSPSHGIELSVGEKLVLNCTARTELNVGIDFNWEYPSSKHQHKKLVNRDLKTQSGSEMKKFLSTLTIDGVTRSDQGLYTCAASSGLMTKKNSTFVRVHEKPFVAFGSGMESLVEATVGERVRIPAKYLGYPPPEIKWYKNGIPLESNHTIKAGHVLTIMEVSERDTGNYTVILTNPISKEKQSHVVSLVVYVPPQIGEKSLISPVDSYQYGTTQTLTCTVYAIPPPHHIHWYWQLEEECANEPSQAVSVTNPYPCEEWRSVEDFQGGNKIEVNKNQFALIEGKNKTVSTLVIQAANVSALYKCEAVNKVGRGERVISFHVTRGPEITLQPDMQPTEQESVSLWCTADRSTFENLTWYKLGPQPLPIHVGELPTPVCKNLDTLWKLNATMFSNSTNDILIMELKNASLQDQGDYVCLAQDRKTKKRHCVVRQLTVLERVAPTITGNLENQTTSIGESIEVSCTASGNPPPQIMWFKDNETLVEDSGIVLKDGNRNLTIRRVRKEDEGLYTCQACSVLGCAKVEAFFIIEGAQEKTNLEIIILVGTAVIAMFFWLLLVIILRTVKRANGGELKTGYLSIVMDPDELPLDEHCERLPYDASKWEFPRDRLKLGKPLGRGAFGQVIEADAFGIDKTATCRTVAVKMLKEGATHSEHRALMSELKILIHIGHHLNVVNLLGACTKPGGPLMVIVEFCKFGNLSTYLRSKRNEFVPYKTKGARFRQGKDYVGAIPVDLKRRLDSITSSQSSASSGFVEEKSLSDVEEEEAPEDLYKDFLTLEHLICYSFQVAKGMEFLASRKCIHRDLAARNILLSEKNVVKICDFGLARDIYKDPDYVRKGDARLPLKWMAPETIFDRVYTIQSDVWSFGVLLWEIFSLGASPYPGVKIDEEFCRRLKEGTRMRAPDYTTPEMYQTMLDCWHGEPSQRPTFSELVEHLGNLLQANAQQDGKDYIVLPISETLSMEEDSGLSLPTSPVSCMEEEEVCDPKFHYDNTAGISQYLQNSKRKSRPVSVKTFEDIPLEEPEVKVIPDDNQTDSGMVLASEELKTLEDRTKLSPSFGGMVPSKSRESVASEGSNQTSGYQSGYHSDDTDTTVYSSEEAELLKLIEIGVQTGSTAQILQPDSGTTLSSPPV
- protocol-details: KDR autophosphorylation ELISA in HUVEC cells (Example G)
- Type: cell-based
- measurement-context: cellular activity; KDR autophosphorylation ELISA in HUVEC cells

// query Looking for the measured IC50 of CNC(=O)Cc1cc2c(Oc3ccc(NC(=O)c4cnc(C)c(-c5ccc(F)cc5)c4O)cc3F)ccnc2cc1OC [Compound 376] , can you help?
// result < 100 nM

// query IC50 for COc1cnc2c(Oc3ccc(NC(=O)c4cn(C)cc(-c5ccc(F)cc5)c4=O)cc3F)ccnc2c1 [Compound 112] ?
// result > 300 nM

// query Quick one: IC50 of COc1cnc2c(Oc3ccc(NC(=O)c4c5n(cc(-c6ccc(F)cc6)c4=O)CCC5)cc3F)ccnc2c1 [Compound 405] ?
// result > 300 nM

// query Using the record for COc1cc2nccc(Oc3ccc(NC(=O)c4cc(C#N)c(C)n(-c5ccc(F)cc5)c4=O)cc3F)c2nc1OC [Compound 87] , report its IC50.
// result > 300 nM

// query Query: IC50; subject: CCc1c(C)c(C(=O)Nc2ccc(Oc3ccnc4cc(OC)cnc34)c(F)c2)c(=O)n(-c2ccc(F)cc2)c1C [Compound 335]
// result > 300 nM

// query GET /values?readout=IC50&item= CCn1cc(C(=O)Nc2ccc(Oc3ccnc4cc(OC)cnc34)c(F)c2)c(=O)c(-c2ccc(F)cc2)c1 [Compound 170]
// result > 300 nM

// query Item COCc1nc(C)c(-c2ccc(F)cc2)c(O)c1C(=O)Nc1ccc(Oc2ccnc3cnc(OC)cc23)c(F)c1 [Compound 501] has what recorded IC50?
// result < 100 nM
